Provenance of the data: patent US9199959B2

Exercise: for every item that follows, state its recorded IC50 at 15 min.
target: CYP2D6 (Homo sapiens)
Construct: enzyme, pooled human hepatic microsome 0.2 mg protein/mL; from tissue; host or cells: pooled human liver microsomes
Sequence (P10635 whole entry): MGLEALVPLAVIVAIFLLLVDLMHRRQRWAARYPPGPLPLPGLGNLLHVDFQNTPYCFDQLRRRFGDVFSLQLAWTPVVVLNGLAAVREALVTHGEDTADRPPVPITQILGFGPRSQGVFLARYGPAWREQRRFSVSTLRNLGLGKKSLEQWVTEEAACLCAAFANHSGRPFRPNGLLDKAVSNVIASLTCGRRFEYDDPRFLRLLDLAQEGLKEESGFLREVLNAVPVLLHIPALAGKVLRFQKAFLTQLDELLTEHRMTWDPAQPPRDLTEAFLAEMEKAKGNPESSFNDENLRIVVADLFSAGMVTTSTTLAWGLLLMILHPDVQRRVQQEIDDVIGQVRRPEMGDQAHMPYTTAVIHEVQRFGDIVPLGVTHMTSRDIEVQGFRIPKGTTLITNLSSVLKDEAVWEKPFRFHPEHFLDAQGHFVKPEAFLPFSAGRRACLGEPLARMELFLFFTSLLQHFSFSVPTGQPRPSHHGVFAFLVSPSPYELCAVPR
assay method text: CYP inhibition assay, dextromethorphan O-demethylation
Type: in vitro ADME
condition label: pooled human liver microsomes, probe dextromethorphan (O-demethylation), 5 μmol/L, pooled human hepatic microsome

[Q] Looking for the measured IC50 at 15 min of Cc1ccc(-c2c(C(OC(C)(C)C)C(=O)O)cc(N(C)C(=O)C(C)C)c(-c3ccc(C)c(C)c3)c2C)cc1C (stereo not drawn) , can you help?
[A] ≥ 20 µM

[Q] Looking for the measured IC50 at 15 min of CC(=O)Nc1c(Br)c(C(OC(C)(C)C)C(=O)O)c(-c2ccc(C)c(C)c2)c(C)c1-c1ccc(C)c(C)c1 (stereo not drawn) , can you help?
[A] ≥ 20 µM

[Q] Looking for the measured IC50 at 15 min of Cc1ccc(-c2c(N)cc(C(OC(C)(C)C)C(=O)O)c(-c3ccc(C)c(C)c3)c2C)cc1C (stereo not drawn) , can you help?
[A] ≥ 20 µM

[Q] Looking for the measured IC50 at 15 min of CC(=O)Nc1cc(C(OC(C)(C)C)C(=O)O)c(-c2ccc(C)c(C)c2)c(C)c1-c1ccc(C)c(C)c1 (stereo not drawn) , can you help?
[A] ≥ 20 µM

[Q] Looking for the measured IC50 at 15 min of COC(=O)Nc1cc(C(OC(C)(C)C)C(=O)O)c(-c2ccc(C)c(C)c2)c(C)c1-c1ccc(C)c(C)c1 (stereo not drawn) , can you help?
[A] ≥ 20 µM

[Q] Looking for the measured IC50 at 15 min of CC(=O)N(C)c1c(C)c(C(OC(C)(C)C)C(=O)O)c(-c2ccc(C)c(C)c2)c(C)c1-c1ccc(C)c(C)c1 (stereo not drawn) , can you help?
[A] ≥ 20 µM

[Q] Looking for the measured IC50 at 15 min of Cc1ccc(-c2c(C)c(-c3ccc(C)c(C)c3)c(C(OC(C)(C)C)C(=O)O)c(C)c2N)cc1C (stereo not drawn) , can you help?
[A] ≥ 20 µM

[Q] Looking for the measured IC50 at 15 min of CC(=O)Nc1c(C)c(C(OC(C)(C)C)C(=O)O)c(-c2ccc(C)c(C)c2)c(C)c1-c1ccc(C)c(C)c1 (stereo not drawn) , can you help?
[A] ≥ 20 µM

[Q] Looking for the measured IC50 at 15 min of Cc1ccc(-c2c(NC(=O)C(C)C)cc(C(OC(C)(C)C)C(=O)O)c(-c3ccc(C)c(C)c3)c2C)cc1C (stereo not drawn) , can you help?
[A] ≥ 20 µM
